The entries below come with measured EC50 values attached.
# Study system: PPARδ-RXRα heterodimer (Homo sapiens, UniProt Q03181)
# Sequence (Q03181 1-441): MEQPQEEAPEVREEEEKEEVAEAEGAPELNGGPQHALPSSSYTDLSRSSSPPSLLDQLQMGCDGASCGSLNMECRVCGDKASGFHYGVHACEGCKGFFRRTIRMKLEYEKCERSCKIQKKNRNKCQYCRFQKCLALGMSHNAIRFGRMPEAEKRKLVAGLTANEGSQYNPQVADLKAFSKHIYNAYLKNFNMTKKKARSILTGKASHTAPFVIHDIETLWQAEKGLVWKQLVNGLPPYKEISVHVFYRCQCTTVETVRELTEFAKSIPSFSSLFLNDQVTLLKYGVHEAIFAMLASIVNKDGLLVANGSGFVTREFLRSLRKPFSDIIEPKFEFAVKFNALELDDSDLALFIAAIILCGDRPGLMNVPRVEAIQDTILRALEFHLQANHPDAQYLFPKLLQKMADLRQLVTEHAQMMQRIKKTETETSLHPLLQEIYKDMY
# Sequence (P19793 1-462 partner): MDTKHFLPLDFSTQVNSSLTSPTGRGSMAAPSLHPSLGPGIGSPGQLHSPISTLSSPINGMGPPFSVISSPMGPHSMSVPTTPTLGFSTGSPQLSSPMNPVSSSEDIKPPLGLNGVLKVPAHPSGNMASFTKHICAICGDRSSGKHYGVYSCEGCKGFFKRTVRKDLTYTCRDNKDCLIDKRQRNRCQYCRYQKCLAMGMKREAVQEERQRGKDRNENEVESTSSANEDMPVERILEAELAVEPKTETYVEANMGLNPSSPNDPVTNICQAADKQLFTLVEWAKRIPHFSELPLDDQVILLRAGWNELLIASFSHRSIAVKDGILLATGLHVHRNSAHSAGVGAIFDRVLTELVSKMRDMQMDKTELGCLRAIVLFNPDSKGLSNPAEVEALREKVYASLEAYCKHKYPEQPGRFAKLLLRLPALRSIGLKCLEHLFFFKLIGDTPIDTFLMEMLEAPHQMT
# Protocol details: PPARδ-RXRα heterodimer ligand activity, luciferase reporter in COS-1 transformant (Test Example 4)
# Condition set: COS-1 transformant (hPPARδ, hRXRα, reporter), 36-48 hours, concentration for 50% of the maximum fold induction
Kindly provide the numeric value in nM only, without the unit symbol.

Use these answered entries as a reference point.
{"columns": ["Chemical structure", "Study system", "Unit annotation", "EC50"],
 "data": [
  ["CCOc1cc(OCCCc2cn(-c3ccc(C(F)(F)F)cn3)nc2OC)ccc1CCC(=O)O", "PPARδ-RXRα heterodimer (Homo sapiens, UniProt Q03181)", "nM", 9.9],
  ["CCCc1nn(-c2ccc(C(F)(F)F)cn2)cc1CCCCOc1cc(CCC(=O)O)n(-c2ccccc2)n1", "PPARδ-RXRα heterodimer (Homo sapiens, UniProt Q03181)", "nM", 1.9],
  ["Cc1nn(-c2ccc(C(F)(F)F)cn2)cc1CCCOc1cccc(CC(=O)O)c1", "PPARδ-RXRα heterodimer (Homo sapiens, UniProt Q03181)", "nM", 3.9]
]}

Let's switch to this compound now.
Entry under review: `O=C(O)Cc1cccc(OCCCc2cn(-c3ccc(C(F)(F)F)cn3)nc2-c2ccccc2)c1` . Reported EC50?
2.4
